B1: RHOBTB2 (parent)
chain: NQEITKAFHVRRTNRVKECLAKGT

# Variants of: B1
# Protocol Details: protein stability index of a GFP-peptide fusion (GPS, HEK-293T) (PSI 1-6); higher = more stable;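 note: lentivirally expressed fusions sorted by FACS into six bins by GFP to DsRed ratio, PSI derived from sequencing read proportions per bin multiplied by bin number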
# Recorded Conditions: c terminus: a fixed tail appended
Property Label: protein stability index

>>> print(df.to_string())
                   ordered_residues           property_label  result_value
 0   NQEIVKAFHVRRTNRVKECLAKGT [T5V]  protein stability index          3.51
 1  NQEITKAFHVRRTNRVSECLAKGT [K17S]  protein stability index          3.63
 2  NQEITKAFHVRRTNRNKECLAKGT [V16N]  protein stability index          3.41
 3  NQEITKAFHVARTNRVKECLAKGT [R11A]  protein stability index          4.09
 4   NQEITVAFHVRRTNRVKECLAKGT [K6V]  protein stability index           2.1
 5  NQEITKAFHVRRTNRVKECLYKGT [A21Y]  protein stability index          2.83
 6   NQEITKADHVRRTNRVKECLAKGT [F8D]  protein stability index          4.67
 7   NQEILKAFHVRRTNRVKECLAKGT [T5L]  protein stability index          2.86
 8  NQEITKAFHVRETNRVKECLAKGT [R12E]  protein stability index          4.16
 9  NQEITKAFHVRRTNRCKECLAKGT [V16C]  protein stability index          2.51
10  NQEITKAFHVRRTNRIKECLAKGT [V16I]  protein stability index          2.91
11   NQEIIKAFHVRRTNRVKECLAKGT [T5I]  protein stability index          4.04
12   NQGITKAFHVRRTNRVKECLAKGT [E3G]  protein stability index          3.15
13   NQEIRKAFHVRRTNRVKECLAKGT [T5R]  protein stability index           3.7
14  NQEITKAFHVRRTNRLKECLAKGT [V16L]  protein stability index          3.92
15   NQEITKAQHVRRTNRVKECLAKGT [F8Q]  protein stability index          4.48
16  NQEITKAFHVRRTNRVKECLAWGT [K22W]  protein stability index          2.06
17  NQEITKAFHVRRTNRVKECLVKGT [A21V]  protein stability index           2.8
18  NQEITKAFHVRRTNRVKYCLAKGT [E18Y]  protein stability index          2.67
19   NQEITKALHVRRTNRVKECLAKGT [F8L]  protein stability index          3.77
20  NQEITKAFHVRRTTRVKECLAKGT [N14T]  protein stability index          2.95
21   NQEITKTFHVRRTNRVKECLAKGT [A7T]  protein stability index          3.11
22  NQEITKAFHVRVTNRVKECLAKGT [R12V]  protein stability index          2.83
23  NQEITKAFHVRRTNRVKECPAKGT [L20P]  protein stability index          2.39
24   NQEITKHFHVRRTNRVKECLAKGT [A7H]  protein stability index          2.52
25  NQEITKAFHVRRTNYVKECLAKGT [R15Y]  protein stability index          2.86
26  NQEITKAFHVRRKNRVKECLAKGT [T13K]  protein stability index          2.79
27  NQEITKAFHVRRTNRVGECLAKGT [K17G]  protein stability index          2.74
28  NQEITKAFHVRRTNRVKECRAKGT [L20R]  protein stability index          2.74
29   NDEITKAFHVRRTNRVKECLAKGT [Q2D]  protein stability index           4.2
30  NQEITKAFHVRRLNRVKECLAKGT [T13L]  protein stability index          3.32
31  NQEITKAFHVRRTNRVKEQLAKGT [C19Q]  protein stability index          3.35
32  NQEITKAFHVRRTNRVKECLAKVT [G23V]  protein stability index          1.75
33   NQEITKAHHVRRTNRVKECLAKGT [F8H]  protein stability index          4.73
34  NQEITKAFHVRKTNRVKECLAKGT [R12K]  protein stability index          4.31
35  NQEITKAFHVRRTNRVKECLAKGF [T24F]  protein stability index          1.81
36  NQEITKAFHVRRTNRVKECLAFGT [K22F]  protein stability index          1.88
37  NQEITKAFHVRRTNNVKECLAKGT [R15N]  protein stability index          3.48
38  NQEITKAFHVRRTNSVKECLAKGT [R15S]  protein stability index          3.54
39   NQEITCAFHVRRTNRVKECLAKGT [K6C]  protein stability index          2.21
40  NQEITKAFHVRRTKRVKECLAKGT [N14K]  protein stability index          3.15
41  NQEITKAFHFRRTNRVKECLAKGT [V10F]  protein stability index          3.39
42  NQEITKAFHVRRTQRVKECLAKGT [N14Q]  protein stability index          3.09
43   NQEITKAFAVRRTNRVKECLAKGT [H9A]  protein stability index          2.45
44  NQEITKAFHVRRTNRVWECLAKGT [K17W]  protein stability index           2.3
45  NQEITKAFHVRRTNRKKECLAKGT [V16K]  protein stability index          3.41
